Listed here: items and their measured Formation of formazan dyes, absorbance, Means 4 h.
tested on: oral lavage; test: Formation of formazan dyes: oral lavage and diaphorase, not malate (TABLE 11); assay type: biochemical, human; conditions: oral lavage and diaphorase, not malate; 4 h
Observable: Formation of formazan dyes, absorbance, Means 4 h

[
  {
    "Structure String": "Cc1nc(-[n+]2nc(-c3cccc(OCC(=O)O)c3)nn2-c2ccc(S(=O)(=O)[O-])cc2)sc1C",
    "Measured Number": 1.13
  },
  {
    "Structure String": "COc1cc(-c2ccc(-[n+]3nc(-c4ccc(C(=O)N(CCS(=O)(=O)[O-])CCS(=O)(=O)[O-])cc4)nn3-c3nc4ccccc4s3)c(OC)c2)ccc1-[n+]1nc(-c2ccc(C(=O)N(CCS(=O)(=O)[O-])CCS(=O)(=O)[O-])cc2)nn1-c1nc2ccccc2s1.[Na+].[Na+]",
    "Measured Number": 0.78
  },
  {
    "Structure String": "COc1cc([N+](=O)[O-])c(S(=O)(=O)[O-])cc1-n1nc(C(=O)Nc2ccccc2)n[n+]1-c1cc(S(=O)(=O)O)c([N+](=O)[O-])cc1OC",
    "Measured Number": 1.18
  },
  {
    "Structure String": "O=[N+]([O-])c1ccc(-[n+]2nc(-c3ccc(S(=O)(=O)[O-])cc3S(=O)(=O)[O-])nn2-c2ccc(I)cc2)cc1.[Na+]",
    "Measured Number": 1.29
  },
  {
    "Structure String": "COc1cc([N+](=O)[O-])ccc1-[n+]1nc(-c2ccc(S(=O)(=O)[O-])cc2S(=O)(=O)[O-])nn1-c1ccc([N+](=O)[O-])cc1.[Na+]",
    "Measured Number": 0.82
  }
]
